Tested on: NCI-H460 lung
Assay: NCI-60 one-dose screen, 48 h (100 = growth as untreated, 0 = no growth, -100 = all killed)
Details: 10 µM unless noted
This is part of a sample that, as a whole, favours compounds with a hit. Of some 83,000 tested, about 20% had one in any assay.
Sorting guide: entries reporting growth beneath 70% go in the Satisfied pile, the rest go in the Not satisfied pile.

compound	label-class
C=C(C)C1CCC2(C(=O)O)CCC3(C)C(CCC4C5(C)CCC(O)C(C)(C)C5CCC43C)C12 (stereo not drawn)	Satisfied
COc1cc(/C=C/C(=O)c2ccc(NC(=O)CSc3nnc(-c4ccc(Cl)cc4)n3-c3ccccc3)cc2)cc(OC)c1OC	Not satisfied
Nc1c(C(=O)c2ccc(Br)cc2)sc2nc3c(cc12)CCCC3	Not satisfied
N=C(N)c1ccc(-c2ccc(-c3cc(Cl)cc(Cl)c3)o2)nc1	Satisfied
COC(=O)/C=C/c1cc(OC(C)=O)c2c(c1)[C@@H](C(=O)OC)[C@H](c1ccc(OC(C)=O)c(OC(C)=O)c1)O2	Satisfied
O=C1C(Cl)=C(N/N=c2/[nH][nH]/c(=N/NC3=C(Cl)C(=O)c4ccccc4C3=O)c3ccccc23)C(=O)c2ccccc21	Not satisfied
CNC(=O)c1cc(Oc2ccc(NC(=O)c3nc(S(C)(=O)=O)sc3-c3ccc(F)cc3)cc2)ccn1	Not satisfied
CCn1c(CN2CCN(Cc3ccccc3)CC2)nc2cc(NC(=O)c3cccs3)ccc21	Satisfied
COc1cc(-c2csc(NC(=O)Nc3cccc(C(F)(F)F)c3)n2)cc(OC)c1OC	Satisfied
ClCc1cccc(CSc2ncnc3c2ncn3Cc2cccc(CCl)c2)c1	Satisfied
CC(C)NC(=O)OCC#CCOC(=O)NC(C)C	Not satisfied
COc1ccc([C@@H]2[C@@H](Cl)C(=O)N2c2cc(OC)c(OC)c(OC)c2)cc1C	Satisfied
C[C@@H](C[C@H](CC1CC1)c1ccccc1)c1ccc2ccccc2c1	Not satisfied
C#CC[C@@H]1C[C@]2(C)[C@H]3CC[C@@H]4[C@H]5C(C(=C)C)CC[C@]5(C(=O)NCCCCN)CC[C@@]4(C)[C@]3(C)CC[C@H]2C(C)(C)[C@H]1OC(C)=O (stereo partly drawn)	Satisfied
COc1cc(C2C=C(C)N=C3SC=NN32)cc(OC)c1OC (stereo not drawn)	Not satisfied
Oc1c(-c2cc(C(F)(F)F)[nH]n2)cc(Cl)c(OCc2ccc(Cl)cc2)c1-c1ccc(Cl)c(C(F)(F)F)c1	Satisfied
Cc1ccc2oc(=O)cc(-c3nc4ccc([N+](=O)[O-])cc4[nH]3)c2c1	Satisfied
COc1cc2c(cc1OCCCOc1cc3c(cc1OC)C(=O)N1CCC[C@H]1C=N3)C=CC(C)(C)O2	Not satisfied
O=C(O)C1[S][Sb]([CH](C(=O)O)[CH](C(=O)O)[Sb]2[S]C(C(=O)O)C(C(=O)O)[S]2)[S]C1C(=O)O (stereo not drawn)	Not satisfied
O=S(=O)(NCC[C@@H]1C[C@H]1c1ccc2ccccc2c1)c1ccc(C(F)(F)F)cc1	Not satisfied
O=C(Nc1ccc(OS(=O)(=O)c2ccc(F)cc2)cc1)C12CC3CC(CC(C3)C1)C2	Satisfied
CC(=O)OC1Oc2cc(C)c(C)cc2-c2oc(=O)c(-c3cc4ccccc4oc3=O)cc21 (stereo not drawn)	Not satisfied
COc1cc(Nc2ccnc3ccc(Br)cc23)cc(OC)c1OC	Satisfied
Fc1ccc2nc(-c3ccc(-c4noc(-c5ccc(Cl)cc5)n4)cc3)[nH]c2c1	Not satisfied
COc1ccc(C2=Nn3c(nnc3-c3ccc(Cl)cc3N)SC2)cc1	Not satisfied
COc1cc(CN2CCO[C@H](COc3cccc(F)c3)C2)ccc1Cl	Satisfied
O=C(OCc1ccc2c(Br)cc(Br)c(O)c2n1)c1cc2ccccc2[nH]1	Satisfied
COc1ccc(/C=C(/C(=O)N2CCN(c3ccccc3)CC2)c2cc(OC)c(OC)c(OC)c2)cc1O	Satisfied
CCC1CCc2nc3sc(C(=O)Nc4cccc(F)c4)c(N)c3cc2C1 (stereo not drawn)	Not satisfied
CCN1CCN(Cc2ccc(NC(=O)c3nc4ccc5[nH]ncc5c4c4c3CCCC4)cc2C(F)(F)F)CC1	Satisfied
CCc1ccc(Nc2cc(C)c3ccc(O)cc3n2)cc1	Satisfied
Fc1ccc(-c2nnc(N3CCOCC3)c3ccccc23)cc1	Not satisfied
COc1ccc(C(=O)C(CN(C)C)c2ccccc2)cc1 (stereo not drawn)	Satisfied
O=C(OCc1ccc2c(Cl)cc(Cl)c(O)c2n1)c1cc2ccccc2[nH]1	Satisfied
CC(OC(=O)Nc1cccc(Cl)c1)C(=O)O (stereo not drawn)	Not satisfied
CC[C@H](Nc1nc(C)nc(N)c1C#N)c1nc2cccc(NCc3ccc(C(=O)NO)cc3)c2c(=O)n1-c1ccccc1	Satisfied

Origin of values: PubChem BioAssay (NCI)
